Target: Human FGFR2c (Homo sapiens, UniProt P21802)
Sequence (P21802 22-821): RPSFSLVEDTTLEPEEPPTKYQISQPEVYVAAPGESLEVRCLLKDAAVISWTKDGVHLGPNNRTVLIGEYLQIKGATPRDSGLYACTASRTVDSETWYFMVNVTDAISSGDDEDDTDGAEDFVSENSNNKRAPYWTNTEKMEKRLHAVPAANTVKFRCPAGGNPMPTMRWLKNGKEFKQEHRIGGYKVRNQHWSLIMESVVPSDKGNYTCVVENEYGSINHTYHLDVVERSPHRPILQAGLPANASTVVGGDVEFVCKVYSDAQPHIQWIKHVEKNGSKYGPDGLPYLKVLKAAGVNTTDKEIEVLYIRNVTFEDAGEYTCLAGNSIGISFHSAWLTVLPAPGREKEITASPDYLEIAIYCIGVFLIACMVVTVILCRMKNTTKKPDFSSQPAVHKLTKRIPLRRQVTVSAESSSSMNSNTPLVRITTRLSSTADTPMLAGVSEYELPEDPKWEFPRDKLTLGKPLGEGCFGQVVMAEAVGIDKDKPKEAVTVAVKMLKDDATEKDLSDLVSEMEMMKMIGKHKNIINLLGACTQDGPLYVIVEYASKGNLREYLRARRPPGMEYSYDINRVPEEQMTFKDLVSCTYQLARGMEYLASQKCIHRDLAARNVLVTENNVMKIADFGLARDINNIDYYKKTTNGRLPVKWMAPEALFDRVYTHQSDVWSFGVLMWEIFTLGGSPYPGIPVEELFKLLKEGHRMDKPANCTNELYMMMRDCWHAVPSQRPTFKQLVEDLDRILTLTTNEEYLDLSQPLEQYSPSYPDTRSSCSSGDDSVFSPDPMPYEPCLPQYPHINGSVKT
Experiment: FACS binding on Expi293 cells, human FGFR2c (Example 10)
Conditions: Expi293 cells overexpressing human FGFR2c
Experimental: To evaluate the binding activity of anti-FGFR2b antibodies to native FGFR2b on living cells, Expi293 cells were engineered to overexpress human FGFR2b, cyno FGFR2b, mouse FGFR2b, or human FGFR2c. Expi293 cells expressing antigens were seeded in 96-well plates, and were incubated with serially diluted anti-FGFR2b antibodies. Goat anti-human IgG [Alexa Fluor® 647] […] The change of mean fluorescent intensity (MFI) of humanized candidates BGAh9239 and BGAh9179 was measured by flow cytometry. […]
value_type: Emax (MFI)
Response body: numeric value in MFI, unit text excluded.

Quick one: Emax (MFI) of BGAm1823: parental murine anti-FGFR2b antibody; VH SEQ ID NO: 28, VL SEQ ID NO: 30 (antibody, V domains shown, Synthetic: VH AA; Synthetic: VL AA) VH: EVQLQQSGAELVKPGASVKISCKASGYAFSIYWMNWVKQRPGKGLEWIGQIYPENGDTNYNGKFKGKATLTADKSSSTAYMHLSSLTSEDSAVYFCARGGFDYWGQGTTLTVSS VL: NIVMTQSPASLSASVGETVTITCRASENIYSNLAWYQQKQGKSPQLLVYTATNLADGVPSRFSGSGSGTQFSLKINSLQPEDFGSYYCQHFYGILYTFGSGTRLEIK ?
22634
